Below: a set of entries, each annotated with reported protein stability index.
B1: ZNF232 (parent)
chain: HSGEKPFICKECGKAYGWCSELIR

Variants of: B1
assay-name: protein stability index of a GFP-peptide fusion (GPS, HEK-293T) (PSI 1-6); higher = more stable;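 note: lentivirally expressed fusions sorted by FACS into six bins by GFP to DsRed ratio, PSI derived from sequencing read proportions per bin multiplied by bin number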
condition-set: c terminus: a fixed tail appended

[
  {
    "variant-descriptor": "I23T",
    "protein stability index": 1.89
  },
  {
    "variant-descriptor": "I8L",
    "protein stability index": 1.75
  },
  {
    "variant-descriptor": "R24N",
    "protein stability index": 2.03
  },
  {
    "variant-descriptor": "A15R",
    "protein stability index": 2.14
  }
]
